Molecular target: T1, 人CX3CL1胞外区蛋白 CX3CL1(Q25-Q341)-6xHis (human, UniProt P78423 25-341)
T1 construct: Expressed in 293 cells; also called huCX3CL1-His; Fractalkine
T1 sequence: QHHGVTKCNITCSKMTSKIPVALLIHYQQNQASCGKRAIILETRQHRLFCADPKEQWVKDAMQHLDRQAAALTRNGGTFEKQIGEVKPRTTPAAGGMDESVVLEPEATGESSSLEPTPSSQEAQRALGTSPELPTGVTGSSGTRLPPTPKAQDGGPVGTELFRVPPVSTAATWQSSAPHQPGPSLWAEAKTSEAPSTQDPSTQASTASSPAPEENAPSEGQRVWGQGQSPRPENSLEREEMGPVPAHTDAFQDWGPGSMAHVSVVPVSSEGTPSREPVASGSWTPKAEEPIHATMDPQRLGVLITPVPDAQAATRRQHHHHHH
Assay: FACS competition: antibody blocks huCX3CL1-His binding to CHOK1-hCX3CR1 cells
Listed here: items and their measured IC50.
Write down the numeric answer in nM and omit the unit.

>  <binder>
mAb032 (antibody, V domains shown, Murine monoclonal antibody purified from hybridoma supernatant; also called 18H6F1) VH: EVQLQQSGPELVKPGASVKISCKASGYTFTDYYMNWVKQSHGKSLEWIGDINPNNGGTSYNQKFKGKATLTVDKSSSTAYMELRSLTSEDSAVYYCASSGNSYVDYWGQGTTLTVSS VL: DIVMTQSHKFMSTSVGDRVSITCKASQDVSTAVAWYQQKPGQSPKLLIYWASTRHTGVPDRFTGSGSGTDYTLTISSVQAEDLALYYCQQHYSSPYTFGGGTKLEIK

>  <display.unit>
nM

>  <IC50>
11.5

$$$$
>  <binder>
mAb022 (antibody, V domains shown, Murine monoclonal antibody purified from hybridoma supernatant; also called 15F7B2) VH: EVQLQQSGPELVKPGASVKISCKASGYTFTDYYMNWVKQSHGKSLEWIGDINPNNGGTNYNQKFKGKATLTVDKSSSTAYMELRSLTSEDSAVFYCASSGNSYVDYWGQGTTLTVSS VL: DIVMTQSHKFMSTSVGDRVNITCKASQDVSTAVAWYQQKPGQSPKLLIYWASTRHTGVPDRFTGSGSGTDYTLTISSVQAEDLALYYCQQHYSSPYTFGGGTKLEIK

>  <display.unit>
nM

>  <IC50>
7.6

$$$$
>  <binder>
HumAb022-4 (antibody, human IgG2, kappa, V domains shown, Full-length humanized IgG2/kappa antibody) VH: EVQLVQSGAEVKKPGATVKISCKASGYTFTDYYMNWVQQAPGKSLEWMGDINPNQGGTNYNQKFKGRVTLTVDKSTSTAYMELSSLRSEDTAVYYCASSGNSYVDYWGQGTTVTVSS VL: DIQMTQSPSSLSASVGDRVTITCKASQDVSTAVAWYQQKPGKAPKLLLYWASTRHTGVPSRFSGSGSGTDYTLTISSLQPEDFATYYCQQHYSSPYTFGGGTKVEIKR

>  <display.unit>
nM

>  <IC50>
1.27

$$$$

Incoming: Recall and state the measured IC50 for Tab#1 (antibody, human IgG2, kappa, V domains shown, also called Quetmolimab; CX3CL1阳性对照抗体) VH: QVQLVQSGAEVKKPGASVKVSCKASGYTFTNYYIHWVKQAPGQGLEWIGWIYPGDGSPKFNERFKGRTTLTADKSTNTAYMLLSSLRSEDTAVYFCATGPTDGDYFDYWGQGTTVTVSS VL: DIQMTQSPSSLSASVGDRVTITCRASGNIHNFLAWYQQKPGKAPKLLIYNEKTLADGVPSRFSGSGSGTDYTLTISSLQPEDFATYFCQQFWSTPYTFGGGTKVEIKR .
Outgoing: 1.96
